target.or.test.system: δ isoform of human Class I PI3 kinases (Homo sapiens (Human))
Sequence (O00329 whole entry, canonical isoform): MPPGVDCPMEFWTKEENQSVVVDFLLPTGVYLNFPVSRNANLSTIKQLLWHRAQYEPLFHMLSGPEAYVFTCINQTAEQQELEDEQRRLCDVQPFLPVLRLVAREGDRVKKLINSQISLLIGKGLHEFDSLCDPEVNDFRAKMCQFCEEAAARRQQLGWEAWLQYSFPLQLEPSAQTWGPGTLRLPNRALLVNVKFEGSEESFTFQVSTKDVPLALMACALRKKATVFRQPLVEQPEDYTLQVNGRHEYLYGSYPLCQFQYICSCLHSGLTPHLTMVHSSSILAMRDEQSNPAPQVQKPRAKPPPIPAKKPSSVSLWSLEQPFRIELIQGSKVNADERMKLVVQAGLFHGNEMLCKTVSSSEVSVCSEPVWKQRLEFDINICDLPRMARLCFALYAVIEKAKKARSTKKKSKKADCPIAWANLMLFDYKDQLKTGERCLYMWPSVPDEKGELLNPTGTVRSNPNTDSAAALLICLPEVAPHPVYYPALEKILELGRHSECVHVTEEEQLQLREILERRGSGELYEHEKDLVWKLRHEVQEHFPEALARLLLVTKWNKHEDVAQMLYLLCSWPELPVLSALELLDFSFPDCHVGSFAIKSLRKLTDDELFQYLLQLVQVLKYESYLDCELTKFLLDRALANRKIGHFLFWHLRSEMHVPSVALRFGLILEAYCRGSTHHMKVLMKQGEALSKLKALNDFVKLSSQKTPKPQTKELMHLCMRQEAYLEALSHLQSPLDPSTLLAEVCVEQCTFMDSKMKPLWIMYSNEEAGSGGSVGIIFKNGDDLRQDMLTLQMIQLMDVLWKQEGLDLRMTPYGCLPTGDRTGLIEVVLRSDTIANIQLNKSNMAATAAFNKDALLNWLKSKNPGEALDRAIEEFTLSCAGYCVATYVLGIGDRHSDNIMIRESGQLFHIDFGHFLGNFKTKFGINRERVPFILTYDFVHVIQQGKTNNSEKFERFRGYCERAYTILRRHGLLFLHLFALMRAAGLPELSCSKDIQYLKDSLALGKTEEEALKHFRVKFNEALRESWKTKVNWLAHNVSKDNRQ
Sequence (P27986 whole entry partner, canonical isoform): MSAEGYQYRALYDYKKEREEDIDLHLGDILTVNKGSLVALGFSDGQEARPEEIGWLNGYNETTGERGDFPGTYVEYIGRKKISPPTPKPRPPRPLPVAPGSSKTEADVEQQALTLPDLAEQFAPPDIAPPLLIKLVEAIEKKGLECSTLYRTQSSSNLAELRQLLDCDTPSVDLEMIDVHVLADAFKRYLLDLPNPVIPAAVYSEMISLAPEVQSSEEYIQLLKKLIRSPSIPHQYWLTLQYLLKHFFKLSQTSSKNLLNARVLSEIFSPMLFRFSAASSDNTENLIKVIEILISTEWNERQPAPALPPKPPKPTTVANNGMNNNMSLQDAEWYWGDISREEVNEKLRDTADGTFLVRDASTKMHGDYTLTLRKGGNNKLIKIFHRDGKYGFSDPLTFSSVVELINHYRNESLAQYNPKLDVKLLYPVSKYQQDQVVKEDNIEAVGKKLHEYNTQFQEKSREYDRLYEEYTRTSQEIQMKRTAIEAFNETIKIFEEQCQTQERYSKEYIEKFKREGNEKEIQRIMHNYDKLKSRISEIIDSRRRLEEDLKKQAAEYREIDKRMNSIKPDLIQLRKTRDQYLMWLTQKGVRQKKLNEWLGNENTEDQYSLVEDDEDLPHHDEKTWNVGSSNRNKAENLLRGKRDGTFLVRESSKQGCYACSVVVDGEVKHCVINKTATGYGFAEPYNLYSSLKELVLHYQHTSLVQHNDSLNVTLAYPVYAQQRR
test.details: PI3-Kinase Promega ADP-Glo Max assay, δ isoform
condition.summary: read-out: PI3K δ IC50
pIC50: −log10 of the molar value.
quantity: pIC50

Field pIC50 (entry C[C@H](NC(=O)c1c(N)nn2cccnc12)c1cc2cccc(C#Cc3ccn[nH]3)c2c(=O)n1-c1ccccc1 ) reads 5.00 to 5.30

###

target.or.test.system: γ isoform of human Class I PI3 kinases (Homo sapiens (Human))
test.details: PI3-Kinase Promega ADP-Glo Max assay, γ isoform
Assay type: biochemical
condition.summary: ratio of PI3K δ IC50 to PI3K γ IC50
quantity: PI3K δ/PI3K γ IC50 (selectivity)

Some solved entries appear below for comparison.
C[C@H](NC(=O)c1c(N)nn2cccnc12)c1cc2cccc(C#Cc3ccn[nH]3)c2c(=O)n1-c1ccccc1 [Compound 43]	Y (Y = 50 to <850)
C[C@H](NC(=O)c1c(N)nn2cccnc12)c1cc2cccc(C#CC=O)c2c(=O)n1-c1ccccc1 [Compound 36]	X (X = 10 to <50)
Cc1c(C#Cc2cccc3nc([C@H](C)NC(=O)c4c(N)nn5cccnc45)n(-c4ccccc4)c(=O)c23)cnn1C [Compound 88]	X (X = 10 to <50)
C/C=C/c1cccc2cc([C@H](C)NC(=O)c3c(N)nn4cccnc34)n(-c3ccccc3)c(=O)c12 [Compound 70]	X (X = 10 to <50)

Here's the next entry for you.
Note to self: PI3K δ/PI3K γ IC50 (selectivity) of C[C@H](NC(=O)c1c(N)nn2cccnc12)c1cc2cccc(C#Cc3cn[nH]c3)c2c(=O)n1-c1ccccc1 [Compound 80] with γ isoform of human Class I PI3 kinases (Homo sapiens (Human)) was Y (Y = 50 to <850)

###

target.or.test.system: γ isoform of human Class I PI3 kinases (Homo sapiens (Human), UniProt P48736)
Sequence (P48736 whole entry, canonical isoform): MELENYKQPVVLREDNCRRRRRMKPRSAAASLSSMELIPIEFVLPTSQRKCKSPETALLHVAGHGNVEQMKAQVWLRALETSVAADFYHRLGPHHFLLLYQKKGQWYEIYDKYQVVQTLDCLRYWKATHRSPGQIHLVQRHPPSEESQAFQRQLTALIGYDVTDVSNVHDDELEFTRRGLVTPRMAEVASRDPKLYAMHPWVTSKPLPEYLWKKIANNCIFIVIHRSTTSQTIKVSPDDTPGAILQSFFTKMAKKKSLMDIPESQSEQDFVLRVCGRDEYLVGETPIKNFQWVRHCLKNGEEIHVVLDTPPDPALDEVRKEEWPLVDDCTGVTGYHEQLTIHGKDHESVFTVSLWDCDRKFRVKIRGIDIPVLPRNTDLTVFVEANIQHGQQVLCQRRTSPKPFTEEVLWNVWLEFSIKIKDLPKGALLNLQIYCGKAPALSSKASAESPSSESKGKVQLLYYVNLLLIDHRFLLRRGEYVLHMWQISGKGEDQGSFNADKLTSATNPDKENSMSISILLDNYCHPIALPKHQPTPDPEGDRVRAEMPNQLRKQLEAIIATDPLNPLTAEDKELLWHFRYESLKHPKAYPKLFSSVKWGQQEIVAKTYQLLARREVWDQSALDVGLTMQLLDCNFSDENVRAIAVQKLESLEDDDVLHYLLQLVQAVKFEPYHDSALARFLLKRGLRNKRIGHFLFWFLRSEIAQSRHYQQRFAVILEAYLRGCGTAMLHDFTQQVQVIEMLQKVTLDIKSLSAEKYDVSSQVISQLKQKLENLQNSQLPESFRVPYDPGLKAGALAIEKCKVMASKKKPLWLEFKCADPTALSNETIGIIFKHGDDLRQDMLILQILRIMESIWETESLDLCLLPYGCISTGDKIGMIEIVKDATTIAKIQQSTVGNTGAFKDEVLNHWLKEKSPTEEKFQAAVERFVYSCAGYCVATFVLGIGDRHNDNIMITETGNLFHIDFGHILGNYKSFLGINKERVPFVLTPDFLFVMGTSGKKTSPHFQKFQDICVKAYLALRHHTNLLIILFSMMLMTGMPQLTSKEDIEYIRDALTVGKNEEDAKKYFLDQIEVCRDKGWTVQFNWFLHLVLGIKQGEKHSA
test.details: PI3-Kinase Promega ADP-Glo Max assay, γ isoform
Type: biochemical
condition.summary: ratio of PI3K δ IC50 to PI3K γ IC50
quantity: PI3K δ/PI3K γ IC50 (selectivity)

C[C@H](NC(=O)c1c(N)nn2cccnc12)c1cc2cccc(C#CC3CCN(S(C)(=O)=O)CC3)c2c(=O)n1-c1ccccc1 [Compound 83]	X (X = 10 to <50)
CC(=O)N1CCC(C#Cc2cccc3cc([C@H](C)NC(=O)c4c(N)nn5cccnc45)n(-c4ccccc4)c(=O)c23)CC1 [Compound 82]	X (X = 10 to <50)

###

target.or.test.system: PI3K-γ (Mus musculus (Mouse))
Sequence (Q9JHG7 whole entry): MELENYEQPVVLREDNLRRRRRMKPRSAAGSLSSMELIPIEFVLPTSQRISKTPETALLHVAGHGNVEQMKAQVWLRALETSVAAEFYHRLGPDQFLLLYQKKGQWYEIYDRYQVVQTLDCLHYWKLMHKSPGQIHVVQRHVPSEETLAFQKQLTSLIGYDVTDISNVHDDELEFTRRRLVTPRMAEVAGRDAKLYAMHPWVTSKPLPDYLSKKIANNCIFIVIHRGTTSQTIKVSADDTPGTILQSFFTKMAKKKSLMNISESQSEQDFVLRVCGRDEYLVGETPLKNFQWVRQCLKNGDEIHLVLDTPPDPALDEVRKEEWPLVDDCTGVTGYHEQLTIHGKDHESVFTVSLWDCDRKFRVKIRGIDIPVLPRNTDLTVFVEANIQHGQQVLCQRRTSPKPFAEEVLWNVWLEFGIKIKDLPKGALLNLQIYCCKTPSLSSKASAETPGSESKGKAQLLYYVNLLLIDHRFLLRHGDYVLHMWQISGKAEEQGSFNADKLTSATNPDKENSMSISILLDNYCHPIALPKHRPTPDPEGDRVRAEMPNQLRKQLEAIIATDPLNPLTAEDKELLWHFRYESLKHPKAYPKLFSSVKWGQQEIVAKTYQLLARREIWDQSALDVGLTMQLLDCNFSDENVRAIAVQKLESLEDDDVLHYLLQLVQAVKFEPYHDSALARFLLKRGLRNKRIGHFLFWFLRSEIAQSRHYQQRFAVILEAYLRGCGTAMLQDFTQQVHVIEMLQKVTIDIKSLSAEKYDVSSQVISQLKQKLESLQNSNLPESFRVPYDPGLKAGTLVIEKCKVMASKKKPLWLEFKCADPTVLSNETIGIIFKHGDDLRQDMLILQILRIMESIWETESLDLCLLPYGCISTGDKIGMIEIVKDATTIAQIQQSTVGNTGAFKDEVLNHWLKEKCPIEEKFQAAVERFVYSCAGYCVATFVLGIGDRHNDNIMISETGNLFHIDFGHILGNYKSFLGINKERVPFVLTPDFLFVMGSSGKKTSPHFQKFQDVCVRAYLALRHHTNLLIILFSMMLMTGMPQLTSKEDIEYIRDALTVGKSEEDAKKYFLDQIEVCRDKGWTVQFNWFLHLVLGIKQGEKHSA
test.details: PI3K-γ selective cellular assay: phospho-AKT in C5a stimulated RAW264.7 macrophages
Assay type: cell-based
condition.summary: ratio of RAJI p110 δ assay IC50 to Raw264.7 p110 γ assay IC50
quantity: RAJI δ/Raw264.7 γ IC50 (selectivity)

For orientation, consider the following solved cases.
C[C@H](NC(=O)c1c(N)nn2cccnc12)c1cc2cccc(NC(=O)c3cnn(C)c3)c2c(=O)n1-c1ccccc1	X (X = 10 to <50)
Cc1c(C#Cc2cccc3nc([C@H](C)NC(=O)c4c(N)nn5cccnc45)n(-c4ccccc4)c(=O)c23)cnn1C	Y (Y = 50 to <850)
C[C@H](NC(=O)c1c(N)nn2cccnc12)c1cc2cccc(C#CC=O)c2c(=O)n1-c1ccccc1	W (W = >1 to <10)
C[C@H](NC(=O)c1c(N)nn2cccnc12)c1cc2cccc(C#CC3CNC3)c2c(=O)n1-c1ccccc1	W (W = >1 to <10)
C[C@H](NC(=O)c1c(N)nn2cccnc12)c1cc2cccc(C#CC3CCN(S(C)(=O)=O)CC3)c2c(=O)n1-c1ccccc1	X (X = 10 to <50)
C[C@H](NC(=O)c1c(N)nn2cccnc12)c1cc2cccc(C#Cc3cn[nH]c3)c2c(=O)n1-c1ccccc1	Y (Y = 50 to <850)
CC(=O)N1CCC(C#Cc2cccc3cc([C@H](C)NC(=O)c4c(N)nn5cccnc45)n(-c4ccccc4)c(=O)c23)CC1	X (X = 10 to <50)

Here is the next item to consider.
Looking up C[C@H](NC(=O)c1c(N)nn2cccnc12)c1cc2cccc(C#Cc3ccn[nH]3)c2c(=O)n1-c1ccccc1 , I found its RAJI δ/Raw264.7 γ IC50 (selectivity) recorded as X (X = 10 to <50)

Values from patent US10329299B2
